quantity-measured: melting point

>>> print(df.to_string())
                                   compound  endpoint_result
0       COc1ccc2ccc3c4cc5c(cc4nnc3c2c1)OCO5    259 to 261 °C
1  CN1C(=O)CN(C(=O)N2CC(=O)N(C)c3ccc(Cl)cc3C2c2ccccc2)C(c2ccccc2)c2cc(Cl)ccc21 (centres undefined)    263 to 266 °C
2  CC(C)C(NC(=O)c1ccccc1SSc1ccccc1C(=O)NC(C(=O)O)C(C)C)C(=O)O (centres undefined)    226 to 228 °C
3  CC(C)(C)C(Cl)=NNc1cc(Cl)c(Cl)cc1[N+](=O)[O-]     99 to 100 °C
4  CCC(=O)NC(Cc1ccccc1)c1ccccn1 (centres undefined)      91 to 93 °C
5  COC(=O)OC(C(=O)O)c1ccccc1 (centres undefined)    103 to 105 °C
6  OC(c1ccccc1)c1cc2cc(Br)ccc2o1 (centres undefined)      56 to 58 °C
7              CCSc1ccc2cccc(CCNC(C)=O)c2c1      65 to 66 °C
8  Cc1ccc([C@@H]2c3c(C)c(N4C(=O)CC(c5ccc(F)cc5)CC4=O)c(C)c(C)c3OC2(C)C)cc1    151 to 154 °C
